Consider the following binders and their measured kon readings.
test target: human IL-6 (human, UniProt P05231 30-212)
Sequence (P05231 30-212 limits assumed): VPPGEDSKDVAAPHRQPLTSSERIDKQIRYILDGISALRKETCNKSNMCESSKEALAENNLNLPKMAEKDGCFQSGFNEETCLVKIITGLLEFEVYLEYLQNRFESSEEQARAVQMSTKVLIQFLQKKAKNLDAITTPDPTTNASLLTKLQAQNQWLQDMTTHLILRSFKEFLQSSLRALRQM
protocol text: SPR Biacore, purified, Protein A capture, 37 C
Supply the numeric figure in M⁻¹ s⁻¹, leaving out any unit text.

Examples from the recorded data:
INSERT INTO results (binder, experimental_readout, numeric_result) VALUES
  ('Anti-IL-6 antibody, heavy chain S35H, G66D, L100Q / light chain M32L, M50D, N52S, M88Q (antibody, IgG1, V domains shown, IgG1; variable domains only; VL is variant III) VH: EVQLVESGGGLVQPGGSLRLSCAASGFTFSPFAMHWVRQAPGKGLEWVAKISPGGSWTYYSDTVTDRFTFSLDTSKSTAYLQMNSLRAEDTAVYYCARQQWGYYALDIWGQGTLVTVSS VL: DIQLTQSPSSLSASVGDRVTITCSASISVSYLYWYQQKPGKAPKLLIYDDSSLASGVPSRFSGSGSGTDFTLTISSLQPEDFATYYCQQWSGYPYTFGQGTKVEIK', 'kon', '2.26e+06'),
  ('Anti-IL-6 antibody, heavy chain S35H, G66D / light chain M32L, M50D, N52S, M88Q (antibody, IgG1, V domains shown, IgG1; variable domains only; VL is variant III) VH: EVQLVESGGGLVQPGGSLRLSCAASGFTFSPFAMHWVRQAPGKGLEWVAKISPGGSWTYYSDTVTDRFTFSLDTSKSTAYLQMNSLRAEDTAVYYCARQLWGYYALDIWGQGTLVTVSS VL: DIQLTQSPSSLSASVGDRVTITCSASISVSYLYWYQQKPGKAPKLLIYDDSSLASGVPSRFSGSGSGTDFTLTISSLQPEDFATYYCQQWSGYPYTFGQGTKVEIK', 'kon', '1.22e+06'),
  ('Anti-IL-6 antibody, heavy chain S35H, G66D, L100V / light chain M32L, M50D, N52S, M88Q (antibody, IgG1, V domains shown, IgG1; variable domains only; VL is variant III) VH: EVQLVESGGGLVQPGGSLRLSCAASGFTFSPFAMHWVRQAPGKGLEWVAKISPGGSWTYYSDTVTDRFTFSLDTSKSTAYLQMNSLRAEDTAVYYCARQVWGYYALDIWGQGTLVTVSS VL: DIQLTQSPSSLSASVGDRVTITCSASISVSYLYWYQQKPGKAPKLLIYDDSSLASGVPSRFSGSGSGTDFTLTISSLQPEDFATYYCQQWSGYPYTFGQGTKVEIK', 'kon', '1.62e+06'),
  ('Anti-IL-6 antibody, heavy chain S35H, G66D, L100G / light chain M32L, M50D, N52S, M88Q (antibody, IgG1, V domains shown, IgG1; variable domains only; VL is variant III) VH: EVQLVESGGGLVQPGGSLRLSCAASGFTFSPFAMHWVRQAPGKGLEWVAKISPGGSWTYYSDTVTDRFTFSLDTSKSTAYLQMNSLRAEDTAVYYCARQGWGYYALDIWGQGTLVTVSS VL: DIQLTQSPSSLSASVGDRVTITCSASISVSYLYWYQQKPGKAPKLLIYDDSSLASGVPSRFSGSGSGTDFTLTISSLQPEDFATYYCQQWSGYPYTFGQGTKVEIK', 'kon', '2.76e+06'),
  ('Anti-IL-6 antibody, heavy chain S35H, G66D, L100K / light chain M32L, M50D, N52S, M88Q (antibody, IgG1, V domains shown, IgG1; variable domains only; VL is variant III) VH: EVQLVESGGGLVQPGGSLRLSCAASGFTFSPFAMHWVRQAPGKGLEWVAKISPGGSWTYYSDTVTDRFTFSLDTSKSTAYLQMNSLRAEDTAVYYCARQKWGYYALDIWGQGTLVTVSS VL: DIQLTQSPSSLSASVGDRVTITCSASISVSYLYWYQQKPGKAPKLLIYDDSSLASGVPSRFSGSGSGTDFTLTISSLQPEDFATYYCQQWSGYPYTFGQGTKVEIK', 'kon', '1.49e+06');

Next:
Problem: Fill in kon for record Anti-IL-6 antibody, heavy chain WT / light chain WT (antibody, IgG1, V domains shown, IgG1; variable domains only; also called parent; wild-type) VH: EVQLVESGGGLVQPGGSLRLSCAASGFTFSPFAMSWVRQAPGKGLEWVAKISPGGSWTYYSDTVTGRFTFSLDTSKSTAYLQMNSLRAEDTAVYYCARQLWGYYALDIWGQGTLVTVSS VL: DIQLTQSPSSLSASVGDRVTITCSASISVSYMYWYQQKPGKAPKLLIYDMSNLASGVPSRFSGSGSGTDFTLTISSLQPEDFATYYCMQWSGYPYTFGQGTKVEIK
Solution: 615000
